- assay system: S1P1/EDG1 (Homo sapiens, UniProt P21453)
- Sequence (P21453 whole entry): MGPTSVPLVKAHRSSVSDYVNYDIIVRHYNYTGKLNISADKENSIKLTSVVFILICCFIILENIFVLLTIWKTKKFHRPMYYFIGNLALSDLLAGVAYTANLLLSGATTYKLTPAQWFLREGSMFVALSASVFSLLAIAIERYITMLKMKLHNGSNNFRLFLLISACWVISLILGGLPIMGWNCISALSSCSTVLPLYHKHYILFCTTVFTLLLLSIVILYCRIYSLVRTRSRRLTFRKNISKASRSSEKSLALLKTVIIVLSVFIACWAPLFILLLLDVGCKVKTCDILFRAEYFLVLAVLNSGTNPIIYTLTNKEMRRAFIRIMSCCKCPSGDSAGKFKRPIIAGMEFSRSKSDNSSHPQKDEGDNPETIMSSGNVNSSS
- protocol text: S1P1 CRE-bla CHOK1 reporter assay (inhibition of Forskolin induced cAMP)
- Type: cell-based
- condition details: agonist activity range, Table 2; read-out: S1P1 ACTIVITY
pEC50: −log10 of the molar value. Where a name gives a salt, the structure may show the parent alone.
endpoint name: pEC50

Sample answers from the record:
{"columns": ["compound", "pEC50"],
 "data": [
  ["COCCS(=O)(=O)N[C@H]1CCc2c(-c3nnc(-c4ccc(OC(C)C)c(C#N)c4)s3)cccc21", "9.30 to 10.30"],
  ["CC(C)Oc1ccc(-c2nnc(-c3cccc4c3CC[C@@H]4NS(N)(=O)=O)s2)cc1C#N", "> 10.30"]
]}

Below is a list of compounds. For each, state its recorded pEC50.
1. CC(C)Oc1ccc(-c2nnc(-c3cccc4c3CC[C@@H]4NCC(=O)N(C)C)s2)cc1C#N [Compound 21, hydrochloride]
2. CC(C)Oc1ccc(-c2ncc(-c3cccc4c3CC[C@@H]4NC(=O)N3CC(O)C3)s2)cc1C#N [Compound 171]
3. CC(C)Oc1ccc(-c2ncc(-c3cccc4c3CC[C@@H]4NC(=O)N3CCC(CC(=O)O)CC3)s2)cc1C#N
4. CC(C)Oc1ccc(-c2ncc(-c3cccc4c3CC[C@@H]4NC(=O)N3CC[C@H](N)C3)s2)cc1C#N [Compound 180]
5. CC(C)Oc1ccc(-c2ncc(-c3cccc4c3CC[C@@H]4NC(=O)N3CC[C@H](N)C3)s2)cc1C#N [Compound 179]
6. CC(C)Oc1ccc(-c2ncc(-c3cccc4c3CCC4N[C@H](C)CO)s2)cc1C#N (stereo partly drawn)
7. COC(=O)CC1CCN(CCS(=O)(=O)N[C@H]2CCc3c(-c4cnc(-c5ccc(OC(C)C)c(C#N)c5)s4)cccc32)CC1
8. CC(C)Oc1ccc(-c2ncc(-c3cccc4c3CCC4N3CC[C@@H](N)C3)s2)cc1C#N (stereo partly drawn)

1: 8.30 to 9.30; 2: 9.30 to 10.30; 3: 9.30 to 10.30; 4: < 8.30; 5: 8.30 to 9.30; 6: 8.30 to 9.30; 7: 8.30 to 9.30; 8: < 8.30

----------
- assay system: S1P1/EDG1 (Homo sapiens, UniProt P21453)
- protocol text: S1P1 CRE-bla CHOK1 reporter assay (inhibition of Forskolin induced cAMP)
- Assay type: cell-based
- condition details: agonist activity range, Table 2; read-out: S1P1 ACTIVITY
pEC50: −log10 of the molar value.
Field: pEC50. Provide a value for each of the compounds that follow.

Here's what some known entries look like.
{"columns": ["compound", "pEC50"],
 "data": [
  ["CC(C)Oc1ccc(-c2nnc(-c3cccc4c3CC[C@@H]4NC(=O)CN)s2)cc1C#N", "9.30 to 10.30"],
  ["CCS(=O)(=O)N[C@H]1CCc2c(-c3cnc(-c4ccc(OC(C)C)c(C#N)c4)s3)cccc21", "9.30 to 10.30"],
  ["COC(=O)CS(=O)(=O)N[C@H]1CCc2c(-c3cnc(-c4ccc(OC(C)C)c(C#N)c4)s3)cccc21", "8.30 to 9.30"],
  ["CC(C)Oc1ccc(-c2ncc(-c3cccc4c3CCC4NCCS(C)(=O)=O)s2)cc1C#N (stereo in doubt)", "9.30 to 10.30"],
  ["CC(C)Oc1ccc(-c2nnc(-c3cccc4c3CCC4O)s2)cc1C#N (stereo in doubt)", "9.30 to 10.30"],
  ["CC(C)Oc1ccc(-c2ncc(-c3cccc4c3CCC4N3CCNCC3)s2)cc1C#N (stereo not drawn)", "8.30 to 9.30"],
  ["CC(C)Oc1ccc(-c2cc(-c3cccc4c3CCC4O)cs2)cc1C#N (stereo not drawn)", "8.30 to 9.30"],
  ["CC(C)Oc1ccc(-c2ncc(-c3cccc4c3CCC4N3CC[C@H](N)C3)s2)cc1C#N (stereo partly drawn)", "8.30 to 9.30"]
]}

For each of the compounds below, note its pEC50.
1. CC(C)Oc1ccc(-c2ncc(-c3cccc4c3CC[C@@H]4NS(=O)(=O)C3CC3)s2)cc1C#N
2. COCCN[C@H]1CCc2c(-c3nnc(-c4ccc(OC(C)C)c(C#N)c4)s3)cccc21
3. CC(C)Oc1ccc(-c2ncc(-c3cccc4c3CC[C@@H]4NCC(=O)N3CCNCC3)s2)cc1C#N [Compound 108]
4. CC(C)Oc1ccc(-c2nnc(-c3cccc4c3CCC4NS(N)(=O)=O)s2)cc1C#N (stereo in doubt)
5. CC(C)Oc1ccc(-c2nnc(-c3cccc4c3CC[C@@H]4NCC(=O)N3CCCC3)s2)cc1C#N [Compound 23]
6. CC(C)Oc1ccc(-c2ncc(-c3cccc4c3CC[C@@H]4NCC(=O)N3CC[C@H](O)C3)s2)cc1C#N [Compound 105]
7. CCOc1ccc(-c2nnc(-c3cccc4c3CC[C@@H]4N)s2)cc1OCC
8. COC(=O)N[C@H]1CCc2c(-c3nnc(-c4ccc(OC(C)C)c(C#N)c4)s3)cccc21 [Compound 68]

["9.30 to 10.30", "8.30 to 9.30", "< 8.30", "> 10.30", "8.30 to 9.30", "< 8.30", "8.30 to 9.30", "9.30 to 10.30"]

----------
- assay system: S1P1/EDG1 (Homo sapiens, UniProt P21453)
- protocol text: S1P1 CRE-bla CHOK1 reporter assay (inhibition of Forskolin induced cAMP)
- Type: cell-based
- condition details: agonist activity range, Table 2; read-out: S1P1 ACTIVITY
I'd appreciate it if you could supply EC50 values for the items below.

For the 4 molecules below, give their EC50 values.
1. CC(C)Oc1ccc(-c2ncc(-c3cccc4c3CC[C@@H]4NS(=O)(=O)CC(=O)O)s2)cc1C#N
2. CC(C)Oc1ccc(-c2ncc(-c3cccc4c3CCC4N3CC[C@@H](O)C3)s2)cc1C#N (stereo partly drawn)
3. CC(C)Oc1ccc(-c2ncc(-c3cccc4c3CC[C@@H]4NCC(=O)N(C)C)s2)cc1C#N
4. CC(C)Oc1ccc(-c2ncc(-c3cccc4c3CC[C@@H]4NC(=O)N3CCC[C@H](O)C3)s2)cc1C#N [Compound 197]

50 to 500 pM
500 to 5000 pM
500 to 5000 pM
500 to 5000 pM

Give EC50 for all molecules that follow.
1. COC(=O)CC1CCN(C(=O)N[C@H]2CCc3c(-c4cnc(-c5ccc(OC(C)C)c(C#N)c5)s4)cccc32)CC1
2. CC(C)Oc1ccc(-c2ncc(-c3cccc4c3CC[C@@H]4NC(=O)N3CCOCC3)s2)cc1C#N
3. CC(C)Oc1ccc(-c2ncc(-c3cccc4c3CC[C@@H]4NC(=O)CN3CCCC3)s2)cc1C#N
4. COCC(=O)N[C@H]1CCc2c(-c3cnc(-c4ccc(OC(C)C)c(C#N)c4)s3)cccc21 [Compound 75]

1. 500 to 5000 pM
2. 500 to 5000 pM
3. > 5000 pM
4. 50 to 500 pM

Below are some molecules; for each one, tell me its EC50.
1. CC(C)Oc1ccc(-c2ncc(-c3cccc4c3CC[C@@H]4NC(=O)CN)s2)cc1C#N [Compound 78]
2. CC(C)Oc1ccc(-c2ncc(-c3cccc4c3CC[C@@H]4NS(=O)(=O)CCN(C)C)s2)cc1C#N
3. CC(C)Oc1ccc(-c2ncc(-c3cccc4c3CCC4N3CCN(C)CC3)s2)cc1C#N (stereo not drawn)
4. CC(C)Oc1ccc(-c2nnc(-c3cccc4c3CC[C@@H]4NS(=O)(=O)CCO)s2)cc1C#N
5. CC(C)Oc1ccc(-c2ncc(-c3cccc4c3CC[C@@H]4N3CCC3)s2)cc1C#N
6. CC(C)Oc1ccc(-c2ncc(-c3cccc4c3CC[C@@H]4NS(N)(=O)=O)s2)cc1C#N
7. CC(C)Oc1ccc(-c2ncc(-c3cccc4c3CC[C@@H]4NC(=O)N3CC[C@@H](O)C3)s2)cc1C#N [Compound 176]

["500 to 5000 pM", "500 to 5000 pM", "500 to 5000 pM", "50 to 500 pM", "50 to 500 pM", "50 to 500 pM", "500 to 5000 pM"]

Batch of 7 molecules: report EC50 for each.
1. CC(C)Oc1ccc(-c2ncc(-c3cccc4c3CC[C@@H]4NC(=O)N(C)C)s2)cc1C#N [Compound 169]
2. CC(C)Oc1ccc(-c2ncc(-c3cccc4c3CC[C@@H]4NS(=O)(=O)CCN3CCCCC3)s2)cc1C#N
3. CC(C)Oc1ccc(-c2ncc(-c3cccc4c3CC[C@@H]4NC(=O)N3CC[C@H](O)C3)s2)cc1C#N [Compound 177]
4. CC(C)Oc1ccc(-c2nnc(-c3cccc4c3CC[C@@H]4NS(C)(=O)=O)s2)cc1C#N
5. CNS(=O)(=O)CCNC1CCc2c(-c3cnc(-c4ccc(OC(C)C)c(C#N)c4)s3)cccc21 (stereo not drawn)
6. CC(C)Oc1ccc(-c2ncc(-c3cccc4c3CC[C@@H]4NC(=O)CN)s2)cc1C#N [Compound 77]
7. COCC(=O)N[C@@H]1CCc2c(-c3nnc(-c4ccc(OC(C)C)c(C#N)c4)s3)cccc21

1: 500 to 5000 pM; 2: > 5000 pM; 3: 50 to 500 pM; 4: 50 to 500 pM; 5: 50 to 500 pM; 6: 50 to 500 pM; 7: 50 to 500 pM
